Recorded MFC, one value per entry.
# Tested on: Mucor circinelloides
# Method Summary: Antifungal activity against Mucor circinelloides 235C7 assessed as reduction in fungal growth incubated for 48 hrs by microplate reader analysis
# Format: functional
Numbered stars: 1 amine (or outer) side, 2 acyl side, 3 side chain; on linkers, the order of the positions; unused ones are H or OH. Square brackets hold non-standard residues; d marks the D form. Peptide text beside a SMILES is read from it. X1 = CC[C@@H](C)[C@@H](O[*:1])C(=O)[*:2]; NMeVal(β-OH) = CN[C@H](C(=O)O)C(C)(C)O; NMeF = CN[C@@H](Cc1ccccc1)C(=O)O; aIle = CC[C@@H](C)[C@H](N)C(=O)O; NMeV = CN[C@H](C(=O)O)C(C)C

[
  {
    "Molecule": "CC[C@@H](C)[C@@H]1NC(=O)[C@@H]2CCCN2C(=O)[C@H](Cc2ccccc2)N(C)C(=O)[C@H](Cc2ccccc2)NC(=O)[C@H](C(C)C)N(C)C(=O)[C@@H]([C@H](C)CC)OC(=O)[C@H](C(C)(C)O)N(C)C(=O)[C@H](CC(C)C)NC(=O)[C@H](C(C)C)N(C)C1=O [AUREOBASIDIN A] (cyclo(F[NMeF]P[aIle][NMeV]L[NMeVal(β-OH)][X1][NMeV]))",
    "Target Desc": "Mucor circinelloides",
    "MFC": "> 10 µM"
  },
  {
    "Molecule": "CC[C@H](C)C[C@H](C)CCCCCCCCC(=O)N[C@H]1C[C@@H](O)[C@@H](NCCN)NC(=O)[C@@H]2[C@@H](O)CCN2C(=O)[C@H]([C@H](O)CCN)NC(=O)[C@H]([C@H](O)[C@@H](O)c2ccc(O)cc2)NC(=O)[C@@H]2C[C@@H](O)CN2C(=O)[C@H]([C@@H](C)O)NC1=O",
    "Target Desc": "Mucor circinelloides",
    "MFC": "> 10 µM"
  }
]

====

Recorded MIC80, one value per entry.
# Test system: Pichia kudriavzevii
# Method Summary: Antifungal activity against Candida krusei ATCC 6258 (Y-7179) assessed as reduction in fungal growth incubated for 48 hrs by microplate reader analysis
# Type: functional
Numbered stars: 1 amine (or outer) side, 2 acyl side, 3 side chain; on linkers, the order of the positions; unused ones are H or OH. Square brackets hold non-standard residues; d marks the D form. Peptide text beside a SMILES is read from it. X1 = CC[C@@H](C)[C@@H](O[*:1])C(=O)[*:2]; NMeVal(β-OH) = CN[C@H](C(=O)O)C(C)(C)O; NMeF = CN[C@@H](Cc1ccccc1)C(=O)O; aIle = CC[C@@H](C)[C@H](N)C(=O)O; NMeV = CN[C@H](C(=O)O)C(C)C

[
  {
    "Molecule": "CC[C@H](C)C[C@H](C)C[C@H](C)C[C@@H]1NC(=O)[C@H](C(C)C)N(C)C(=O)[C@@H]([C@H](C)CC)OC(=O)[C@H](C(C)(C)O)N(C)C(=O)[C@H](CC(C)C)NC(=O)[C@H](C(C)C)N(C)C(=O)[C@H]([C@H](C)CC)NC(=O)[C@@H]2CCCN2C(=O)CN(C)C1=O",
    "MIC80 / µM": 1.3
  },
  {
    "Molecule": "C[C@@H]1[C@H](O)[C@@H](C)/C=C/C=C/C=C/C=C/C=C/C=C/C=C/[C@H](O[C@@H]2O[C@H](C)[C@@H](O)[C@H](N)[C@@H]2O)C[C@@H]2O[C@](O)(C[C@@H](O)C[C@@H](O)[C@H](O)CC[C@@H](O)C[C@@H](O)CC(=O)O[C@H]1C)C[C@H](O)[C@H]2C(=O)O",
    "MIC80 / µM": 2.5
  },
  {
    "Molecule": "CC[C@@H](C)[C@@H]1NC(=O)[C@@H]2CCCN2C(=O)[C@H](Cc2ccccc2)N(C)C(=O)[C@H](Cc2ccccc2)NC(=O)[C@H](C(C)C)N(C)C(=O)[C@@H]([C@H](C)CC)OC(=O)[C@H](C(C)(C)O)N(C)C(=O)[C@H](CC(C)C)NC(=O)[C@H](C(C)C)N(C)C1=O [AUREOBASIDIN A] (cyclo(F[NMeF]P[aIle][NMeV]L[NMeVal(β-OH)][X1][NMeV]))",
    "MIC80 / µM": 1.3
  },
  {
    "Molecule": "CC[C@H](C)C[C@H](C)CCCCCCCCC(=O)N[C@H]1C[C@@H](O)[C@@H](NCCN)NC(=O)[C@@H]2[C@@H](O)CCN2C(=O)[C@H]([C@H](O)CCN)NC(=O)[C@H]([C@H](O)[C@@H](O)c2ccc(O)cc2)NC(=O)[C@@H]2C[C@@H](O)CN2C(=O)[C@H]([C@@H](C)O)NC1=O",
    "MIC80 / µM": 0.2
  },
  {
    "Molecule": "CCC(C)n1ncn(-c2ccc(N3CCN(c4ccc(OCC5COC(Cn6cncn6)(c6ccc(Cl)cc6Cl)O5)cc4)CC3)cc2)c1=O (stereo not given)",
    "MIC80 / µM": 0.6
  }
]

====

Recorded MFC, one value per entry.
# Tested on: Aspergillus terreus
# Method Summary: Antifungal activity against Aspergillus terreus 191A6 assessed as reduction in fungal growth incubated for 48 hrs by microplate reader analysis
# Format: functional
Numbered stars: 1 amine (or outer) side, 2 acyl side, 3 side chain; on linkers, the order of the positions; unused ones are H or OH. Square brackets hold non-standard residues; d marks the D form. Peptide text beside a SMILES is read from it. X1 = CC[C@@H](C)[C@@H](O[*:1])C(=O)[*:2]; NMeVal(β-OH) = CN[C@H](C(=O)O)C(C)(C)O; NMeF = CN[C@@H](Cc1ccccc1)C(=O)O; aIle = CC[C@@H](C)[C@H](N)C(=O)O; NMeV = CN[C@H](C(=O)O)C(C)C

[
  {
    "Compound": "C[C@@H]1[C@H](O)[C@@H](C)/C=C/C=C/C=C/C=C/C=C/C=C/C=C/[C@H](O[C@@H]2O[C@H](C)[C@@H](O)[C@H](N)[C@@H]2O)C[C@@H]2O[C@](O)(C[C@@H](O)C[C@@H](O)[C@H](O)CC[C@@H](O)C[C@@H](O)CC(=O)O[C@H]1C)C[C@H](O)[C@H]2C(=O)O [AMPHOTERICIN B]",
    "MFC": "10 µM"
  },
  {
    "Compound": "CCC(C)n1ncn(-c2ccc(N3CCN(c4ccc(OCC5COC(Cn6cncn6)(c6ccc(Cl)cc6Cl)O5)cc4)CC3)cc2)c1=O (stereo not drawn) [ITRACONAZOLE]",
    "MFC": "2.5 µM"
  },
  {
    "Compound": "CC[C@@H](C)[C@@H]1NC(=O)[C@@H]2CCCN2C(=O)[C@H](Cc2ccccc2)N(C)C(=O)[C@H](Cc2ccccc2)NC(=O)[C@H](C(C)C)N(C)C(=O)[C@@H]([C@H](C)CC)OC(=O)[C@H](C(C)(C)O)N(C)C(=O)[C@H](CC(C)C)NC(=O)[C@H](C(C)C)N(C)C1=O [AUREOBASIDIN A] (cyclo(F[NMeF]P[aIle][NMeV]L[NMeVal(β-OH)][X1][NMeV]))",
    "MFC": "> 10 µM"
  }
]

====

# Test system: Mucor circinelloides
# Method Summary: Antifungal activity against Mucor circinelloides 235C7 assessed as reduction in fungal growth incubated for 48 hrs by microplate reader analysis
# Assay type: functional

[
  {
    "Compound": "CCC(C)n1ncn(-c2ccc(N3CCN(c4ccc(OCC5COC(Cn6cncn6)(c6ccc(Cl)cc6Cl)O5)cc4)CC3)cc2)c1=O (stereo not drawn)",
    "MFC": "> 10 µM"
  },
  {
    "Compound": "C[C@@H]1[C@H](O)[C@@H](C)/C=C/C=C/C=C/C=C/C=C/C=C/C=C/[C@H](O[C@@H]2O[C@H](C)[C@@H](O)[C@H](N)[C@@H]2O)C[C@@H]2O[C@](O)(C[C@@H](O)C[C@@H](O)[C@H](O)CC[C@@H](O)C[C@@H](O)CC(=O)O[C@H]1C)C[C@H](O)[C@H]2C(=O)O",
    "MFC": "1.3 µM"
  },
  {
    "Compound": "CC[C@H](C)C[C@H](C)C[C@H](C)C[C@@H]1NC(=O)[C@H](C(C)C)N(C)C(=O)[C@@H]([C@H](C)CC)OC(=O)[C@H](C(C)(C)O)N(C)C(=O)[C@H](CC(C)C)NC(=O)[C@H](C(C)C)N(C)C(=O)[C@H]([C@H](C)CC)NC(=O)[C@@H]2CCCN2C(=O)CN(C)C1=O",
    "MFC": "> 10 µM"
  }
]

====

Recorded MFC<=99.9, one value per entry.
# Tested on: Candida albicans
# Method Summary: Antifungal activity against Candida albicans SC5314 assessed as reduction in fungal viability incubated for 48 hrs by microplate reader analysis
# Format: functional
Numbered stars: 1 amine (or outer) side, 2 acyl side, 3 side chain; on linkers, the order of the positions; unused ones are H or OH. Square brackets hold non-standard residues; d marks the D form. Peptide text beside a SMILES is read from it. X1 = CC[C@@H](C)[C@@H](O[*:1])C(=O)[*:2]; NMeVal(β-OH) = CN[C@H](C(=O)O)C(C)(C)O; NMeF = CN[C@@H](Cc1ccccc1)C(=O)O; aIle = CC[C@@H](C)[C@H](N)C(=O)O; NMeV = CN[C@H](C(=O)O)C(C)C

[
  {
    "Compound": "CC[C@@H](C)[C@@H]1NC(=O)[C@@H]2CCCN2C(=O)[C@H](Cc2ccccc2)N(C)C(=O)[C@H](Cc2ccccc2)NC(=O)[C@H](C(C)C)N(C)C(=O)[C@@H]([C@H](C)CC)OC(=O)[C@H](C(C)(C)O)N(C)C(=O)[C@H](CC(C)C)NC(=O)[C@H](C(C)C)N(C)C1=O [AUREOBASIDIN A] (cyclo(F[NMeF]P[aIle][NMeV]L[NMeVal(β-OH)][X1][NMeV]))",
    "Target Desc": "Candida albicans",
    "Bound Operator": "=",
    "MFC<=99.9 (µM)": 0.6
  },
  {
    "Compound": "C[C@@H]1[C@H](O)[C@@H](C)/C=C/C=C/C=C/C=C/C=C/C=C/C=C/[C@H](O[C@@H]2O[C@H](C)[C@@H](O)[C@H](N)[C@@H]2O)C[C@@H]2O[C@](O)(C[C@@H](O)C[C@@H](O)[C@H](O)CC[C@@H](O)C[C@@H](O)CC(=O)O[C@H]1C)C[C@H](O)[C@H]2C(=O)O",
    "Target Desc": "Candida albicans",
    "Bound Operator": "=",
    "MFC<=99.9 (µM)": 2.5
  },
  {
    "Compound": "CC[C@H](C)C[C@H](C)CCCCCCCCC(=O)N[C@H]1C[C@@H](O)[C@@H](NCCN)NC(=O)[C@@H]2[C@@H](O)CCN2C(=O)[C@H]([C@H](O)CCN)NC(=O)[C@H]([C@H](O)[C@@H](O)c2ccc(O)cc2)NC(=O)[C@@H]2C[C@@H](O)CN2C(=O)[C@H]([C@@H](C)O)NC1=O",
    "Target Desc": "Candida albicans",
    "Bound Operator": "=",
    "MFC<=99.9 (µM)": 0.63
  },
  {
    "Compound": "CC[C@H](C)C[C@H](C)C[C@H](C)C[C@@H]1NC(=O)[C@H](C(C)C)N(C)C(=O)[C@@H]([C@H](C)CC)OC(=O)[C@H](C(C)(C)O)N(C)C(=O)[C@H](CC(C)C)NC(=O)[C@H](C(C)C)N(C)C(=O)[C@H]([C@H](C)CC)NC(=O)[C@@H]2CCCN2C(=O)CN(C)C1=O",
    "Target Desc": "Candida albicans",
    "Bound Operator": "=",
    "MFC<=99.9 (µM)": 1.3
  },
  {
    "Compound": "CCC(C)n1ncn(-c2ccc(N3CCN(c4ccc(OCC5COC(Cn6cncn6)(c6ccc(Cl)cc6Cl)O5)cc4)CC3)cc2)c1=O (stereo not given)",
    "Target Desc": "Candida albicans",
    "Bound Operator": ">",
    "MFC<=99.9 (µM)": 10
  }
]
